Where do these numbers come from? They come from ChEMBL document CHEMBL1147132.

Target: Gonadotropin-releasing hormone receptor (Homo sapiens, UniProt P30968)
Sequence (P30968 whole entry): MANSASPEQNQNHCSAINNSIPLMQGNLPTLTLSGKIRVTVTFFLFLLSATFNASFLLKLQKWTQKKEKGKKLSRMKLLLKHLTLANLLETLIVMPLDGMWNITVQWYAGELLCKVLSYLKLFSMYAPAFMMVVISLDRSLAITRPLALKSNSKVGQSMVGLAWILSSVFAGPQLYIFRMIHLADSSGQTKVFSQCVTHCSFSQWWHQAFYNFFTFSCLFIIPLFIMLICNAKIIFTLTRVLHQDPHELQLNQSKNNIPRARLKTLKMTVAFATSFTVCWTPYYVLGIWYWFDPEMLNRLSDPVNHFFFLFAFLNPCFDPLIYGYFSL
Test: Antagonist activity at human GnRHR expressed in HEK293 cells assessed as inhibition of GnRH-induced luciferase response by reporter gene assay
Assay type: functional, cell-based
measurementKind: IC50

Before answering, review these 2 worked examples.
[[record]]
molecule = "CC(=O)Nc1ccc(C[C@H](NC(=O)[C@H](CO)NC(=O)[C@@H](CCC(N)=O)NC(=O)[C@@H](Cc2ccc(Cl)cc2)NC(=O)[C@@H](Cc2ccc3ccccc3c2)NC(C)=O)C(=O)N[C@H](Cc2ccc(NC(C)=O)cc2)C(=O)N[C@@H](C(=O)N[C@@H](CCCCNC(C)C)C(=O)N2CCC[C@H]2C(=O)N[C@H](C)C(N)=O)S(=O)(=O)C(C)C)cc1"
value = "2000 nM (antagonist)"

[[record]]
molecule = "CC(=O)Nc1ccc(C[C@H](NC(=O)[C@H](CO)NC(=O)[C@@H](Cc2cccnc2)NC(=O)[C@@H](Cc2ccc(Cl)cc2)NC(=O)[C@@H](Cc2ccc3ccccc3c2)NC(C)=O)C(=O)N[C@H](Cc2ccc(NC(C)=O)cc2)C(=O)N[C@@H](CC(C)C)C(=O)N[C@@H](CCCCNC(C)C)C(=O)N2CCC[C@H]2C(=O)N[C@H](C(N)=O)[S+](C)[O-])cc1 (stereo partly drawn)"
value = "0.87 nM (antagonist)"


# ---- query molecule ----
Q: Returns the measured IC50 for the input molecule. Input: CC(=O)Nc1ccc(C[C@H](NC(=O)[C@H](CO)NC(=O)[C@@H](Cc2cccnc2)NC(=O)[C@@H](Cc2ccc(Cl)cc2)NC(=O)[C@@H](Cc2ccc3ccccc3c2)NC(C)=O)C(=O)N[C@H](Cc2ccc(NC(C)=O)cc2)C(=O)N[C@@H](CC(C)C)C(=O)N[C@@H](CCCCNC(C)C)C(=O)N2CCC[C@H]2C(=O)N[C@H](C)C(N)=O)cc1 [ACYLINE]
A: 0.52 nM (antagonist)

====

biological target: UniProt P30968; experiment: Antagonist activity at human GnRHR expressed in HEK293 cells assessed as inhibition of GnRH-induced luciferase response by reporter gene assay; type: functional, cell-based
Examples of molecules with documented IC50 follow.

Observe how each entry below is paired with its result.
[[record]]
molecule = "CC(=O)Nc1ccc(C[C@H](NC(=O)[C@H](CO)NC(=O)[C@@H](CCC(N)=O)NC(=O)[C@@H](Cc2ccc(Cl)cc2)NC(=O)[C@@H](Cc2ccc3ccccc3c2)NC(C)=O)C(=O)N[C@H](Cc2ccc(NC(C)=O)cc2)C(=O)N[C@H](C(=O)N[C@@H](CCCCNC(C)C)C(=O)N2CCC[C@H]2C(=O)N[C@H](C)C(N)=O)S(=O)(=O)C(C)C)cc1"
measurementkind = "IC50"
value = "3810 nM (antagonist)"

[[record]]
molecule = "CC(=O)Nc1ccc(C[C@H](NC(=O)[C@H](CO)NC(=O)[C@@H](CCC(N)=O)NC(=O)[C@@H](Cc2ccc(Cl)cc2)NC(=O)[C@@H](Cc2ccc3ccccc3c2)NC(C)=O)C(=O)N[C@H](Cc2ccc(NC(C)=O)cc2)C(=O)N[C@H](SC(C)C)C(=O)N[C@@H](CCCCNC(C)C)C(=O)N2CCC[C@H]2C(=O)N[C@H](C)C(N)=O)cc1"
measurementkind = "IC50"
value = "39 nM (antagonist)"

[[record]]
molecule = "CC(=O)Nc1ccc(C[C@H](NC(=O)[C@H](CO)NC(=O)[C@@H](CCC(N)=O)NC(=O)[C@@H](Cc2ccc(Cl)cc2)NC(=O)[C@@H](Cc2ccc3ccccc3c2)NC(C)=O)C(=O)N[C@H](Cc2ccc(NC(C)=O)cc2)C(=O)N[C@H](C(=O)N[C@@H](CCCCNC(C)C)C(=O)N2CCC[C@H]2C(=O)N[C@H](C)C(N)=O)[S+]([O-])C(C)C)cc1 (some centres not stated)"
measurementkind = "IC50"
value = "13 nM (antagonist)"


Q: May I ask what IC50 has been recorded for CC(=O)Nc1ccc(C[C@H](NC(=O)[C@H](CO)NC(=O)[C@@H](Cc2cccnc2)NC(=O)[C@@H](Cc2ccc(Cl)cc2)NC(=O)[C@@H](Cc2ccc3ccccc3c2)NC(C)=O)C(=O)N[C@H](Cc2ccc(NC(C)=O)cc2)C(=O)N[C@@H](SC(C)C)C(=O)N[C@@H](CCCCNC(C)C)C(=O)N2CCC[C@H]2C(=O)N[C@H](C)C(N)=O)cc1 ?
A: 0.31 nM (antagonist)

Q: Data request, read-out IC50, for CC(=O)Nc1ccc(C[C@H](NC(=O)[C@H](CO)NC(=O)[C@@H](CCC(N)=O)NC(=O)[C@@H](Cc2ccc(Cl)cc2)NC(=O)[C@@H](Cc2ccc3ccccc3c2)NC(C)=O)C(=O)N[C@H](Cc2ccc(NC(C)=O)cc2)C(=O)N[C@@H](SC(C)C)C(=O)N[C@@H](CCCCNC(C)C)C(=O)N2CCC[C@H]2C(=O)N[C@H](C)C(N)=O)cc1
A: 6.2 nM (antagonist)

Q: For CC(=O)Nc1ccc(C[C@H](NC(=O)[C@H](CO)NC(=O)[C@@H](CCC(N)=O)NC(=O)[C@@H](Cc2ccc(Cl)cc2)NC(=O)[C@@H](Cc2ccc3ccccc3c2)NC(C)=O)C(=O)N[C@H](Cc2ccc(NC(C)=O)cc2)C(=O)N[C@@H](C(=O)N[C@@H](CCCCNC(C)C)C(=O)N2CCC[C@H]2C(=O)N[C@H](C)C(N)=O)[S+]([O-])C(C)C)cc1 (some centres not stated) , what is its reported IC50?
A: 85 nM (antagonist)

Q: Would you mind telling me what IC50 value was observed for CC(=O)Nc1ccc(C[C@H](NC(=O)[C@H](NC(=O)[C@@H](Cc2cccnc2)NC(=O)[C@@H](Cc2ccc(Cl)cc2)NC(=O)[C@@H](Cc2ccc3ccccc3c2)NC(C)=O)[S+](C)[O-])C(=O)N[C@H](Cc2ccc(NC(C)=O)cc2)C(=O)N[C@@H](CC(C)C)C(=O)N[C@@H](CCCCNC(C)C)C(=O)N2CCC[C@H]2C(=O)N[C@H](C)C(N)=O)cc1 (some centres not stated) ?
A: 6.9 nM (antagonist)

Q: Report IC50 for CC(=O)Nc1ccc(C[C@H](NC(=O)[C@H](CO)NC(=O)[C@@H](Cc2cccnc2)NC(=O)[C@@H](Cc2ccc(Cl)cc2)NC(=O)[C@@H](Cc2ccc3ccccc3c2)NC(C)=O)C(=O)N[C@H](Cc2ccc(NC(C)=O)cc2)C(=O)N[C@H](SC(C)C)C(=O)N[C@@H](CCCCNC(C)C)C(=O)N2CCC[C@H]2C(=O)N[C@H](C)C(N)=O)cc1 please.
A: 0.81 nM (antagonist)

Q: If you can, please state the reported IC50 value of CC(=O)Nc1ccc(C[C@H](NC(=O)[C@H](CO)NC(=O)[C@@H](Cc2cccnc2)NC(=O)[C@@H](Cc2ccc(Cl)cc2)NC(=O)[C@@H](Cc2ccc3ccccc3c2)NC(C)=O)C(=O)N[C@H](Cc2ccc(NC(C)=O)cc2)C(=O)N[C@H](C(=O)N[C@@H](CCCCNC(C)C)C(=O)N2CCC[C@H]2C(=O)N[C@H](C)C(N)=O)[S+]([O-])C(C)C)cc1 (some centres not stated) .
A: 1.2 nM (antagonist)

Q: Reported IC50, molecule CS[C@@H](NC(=O)[C@@H]1CCCN1C(=O)[C@H](CCCCNC(C)C)NC(=O)[C@H](CC(C)C)NC(=O)[C@@H](Cc1ccc(NC(C)=O)cc1)NC(=O)[C@H](Cc1ccc(NC(C)=O)cc1)NC(=O)[C@H](CO)NC(=O)[C@@H](Cc1cccnc1)NC(=O)[C@@H](Cc1ccc(Cl)cc1)NC(=O)[C@@H](Cc1ccc2ccccc2c1)NC(C)=O)C(N)=O : ____
A: 0.6 nM (antagonist)

Q: Entry CC(=O)Nc1ccc(C[C@H](NC(=O)[C@H](CO)NC(=O)[C@@H](Cc2cccnc2)NC(=O)[C@@H](Cc2ccc(Cl)cc2)NC(=O)[C@H](NC(C)=O)Sc2ccc3ccccc3c2)C(=O)N[C@H](Cc2ccc(NC(C)=O)cc2)C(=O)N[C@@H](CC(C)C)C(=O)N[C@@H](CCCCNC(C)C)C(=O)N2CCC[C@H]2C(=O)N[C@H](C)C(N)=O)cc1 has what IC50?
A: 0.73 nM (antagonist)

Q: What value of IC50 has been reported for the following molecule? CS[C@H](NC(=O)[C@@H]1CCCN1C(=O)[C@H](CCCCNC(C)C)NC(=O)[C@H](CC(C)C)NC(=O)[C@@H](Cc1ccc(NC(C)=O)cc1)NC(=O)[C@H](Cc1ccc(NC(C)=O)cc1)NC(=O)[C@H](CO)NC(=O)[C@@H](Cc1cccnc1)NC(=O)[C@@H](Cc1ccc(Cl)cc1)NC(=O)[C@@H](Cc1ccc2ccccc2c1)NC(C)=O)C(N)=O
A: 0.8 nM (antagonist)
